Tested on: K562
experiment: NCI tumour cell line growth inhibition, 48 h
Active and inactive are the calls of the source. Cut-off read from the data, not from the text of the source: active = GI50 up to about 1.1 µM and inactive = higher.
parameter: GI50

Look over these answered cases.
molecule	result
C[C@]12CCC3[C@@H](C[C@H]4OC(=O)[C@@]35CCC(=O)C=C45)C1CCC2=O (stereo partly drawn)	> 100 µM (inactive)
COc1cc([C@@H]2c3cc4c(cc3[C@@H](NCc3ccc(C#N)cc3)C3COC(=O)[C@@H]32)OCO4)cc(OC)c1O (stereo partly drawn)	1.54 µM (inactive)
COCN(C)c1nc(N(C)C)nc(N(C)C)n1	> 100 µM (inactive)
c1cnc2c(c1)-n1cccc1C1(CCSC1)NN2 (stereo not drawn)	> 100 µM (inactive)

[Q] Request: GI50, test system K562, entry Nc1ccc(C(=O)O)cc1
[A] > 100 µM (inactive)

[Q] Request: GI50, test system K562, entry N#CC(C#N)=CNCCN1CCN(C=C(C#N)C#N)CC1
[A] > 100 µM (inactive)

[Q] Request: GI50, test system K562, entry CC(=O)c1c(C)cn(S(=O)(=O)NC(=O)Nc2nncs2)c1C
[A] > 100 µM (inactive)

[Q] Request: GI50, test system K562, entry COc1ccc(OC)c(-c2cc(=O)c3c(OC)c(OC)c(OC)c(OC)c3o2)c1
[A] 22.2 µM (inactive)
